From: patent US8163756B2

Molecular target: KDR kinase (Homo sapiens, UniProt P35968, DEL940-989/E990V)
Sequence (P35968 with tags, fused parts or gaps DEL940-989/E990V): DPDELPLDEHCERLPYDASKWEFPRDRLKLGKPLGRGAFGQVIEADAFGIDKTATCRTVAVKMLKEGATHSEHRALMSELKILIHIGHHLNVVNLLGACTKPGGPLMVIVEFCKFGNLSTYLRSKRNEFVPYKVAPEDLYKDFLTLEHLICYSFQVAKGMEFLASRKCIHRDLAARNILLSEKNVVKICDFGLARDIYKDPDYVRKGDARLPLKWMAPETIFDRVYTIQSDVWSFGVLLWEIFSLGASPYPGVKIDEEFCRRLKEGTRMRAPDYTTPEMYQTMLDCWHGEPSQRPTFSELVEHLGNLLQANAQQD
Experiment: KDR kinase assay K2 (as K1, 2.1 nM enzyme, 2 h pre-incubation, 1.0 mM ATP)
Format: biochemical
Conditions: Method K2; read-out: KDR Data (IC50)
measured-property: IC50 (nM)
Numbers only, in nM.

Observe how each entry below is paired with its result.
{"columns": ["compound", "IC50 [nM]"],
 "data": [
  ["CC(C)(C)c1cc(NC(=O)Nc2ccc(F)c(F)c2F)n(-c2cccc(C#N)c2)n1", 110],
  ["COc1cccc(-n2nc(C(C)(C)C)cc2NC(=O)Nc2cccc(Br)c2)c1", 2600],
  ["CC(C)(C)c1cc(NC(=O)Nc2cc(F)cc(F)c2F)n(-c2cccc(C#N)c2)n1", 260]
]}

Give IC50 for each listed item.
1. CC(C)(C)c1cc(NC(=O)Nc2ccc(Cl)cc2)n(-c2ccc3ncccc3c2)n1
2. CC(C)(C)c1cc(NC(=O)Nc2cccc(Cl)c2Cl)n(-c2ccc3c(c2)CC(C(N)=O)NC3)n1 (stereo not shown)
3. CC(C)(C)c1cc(NC(=O)Nc2cccc(F)c2F)n(-c2ccc3c(c2)CCNC(=O)C3)n1
4. CC(C)(C)c1cc(NC(=O)Nc2cc(F)cc(F)c2)n(-c2cccc(C#N)c2)n1

1200
150
3400
470

---

Biological target: B-Raf(V599E) kinase (Homo sapiens, UniProt P15056, V600E)
Sequence (P15056 with tags, fused parts or gaps V600E): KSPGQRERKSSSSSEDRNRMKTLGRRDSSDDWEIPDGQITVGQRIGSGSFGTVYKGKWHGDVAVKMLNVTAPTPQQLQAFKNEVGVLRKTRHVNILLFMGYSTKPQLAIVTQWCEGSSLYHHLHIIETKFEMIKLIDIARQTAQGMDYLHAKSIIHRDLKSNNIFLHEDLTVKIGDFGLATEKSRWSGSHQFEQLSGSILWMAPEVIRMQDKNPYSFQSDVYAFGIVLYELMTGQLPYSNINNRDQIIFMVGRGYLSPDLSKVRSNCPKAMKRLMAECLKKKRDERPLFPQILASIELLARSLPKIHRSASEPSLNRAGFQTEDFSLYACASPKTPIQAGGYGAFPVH
Assay: B-Raf(V599E) kinase assay B1 (construct 1, MEK1 substrate, coupled spectrophotometric)
Assay type: biochemical
Method: The test compounds were incubated with the reaction mixtureat 30° C. for 2 h. […] The reaction rate was calculated using the […] time frame. […] IC50 values were calculated from a series of percent inhibition values determined at a range of inhibitor concentrations using software routines as implemented in the GraphPad Prism software package.
measured-property: pIC50
Answers are plain numbers, as −log10 of the molar value.

// known answers, use as guide
{"columns": ["molecule", "pIC50"],
 "data": [
  ["CC(C)(C)c1cc(NC(=O)Nc2cccc(Cl)c2Cl)n(-c2cccc(CC(=O)N3CCCC(C(=O)O)C3)c2)n1 (stereo not shown)", 7.92],
  ["CC(C)(C)c1cc(NC(=O)Nc2ccc(Cl)cc2)n(-c2ccc3c(c2)C(=O)NCC3)n1", 6.60]
]}

For each entry beneath this line, provide reported pIC50.
1. COc1cccc(-n2nc(C(C)(C)C)cc2NC(=O)Nc2cccc(Cl)c2Cl)c1
2. CC(C)(C)c1cc(NC(=O)Nc2cccc(Cl)c2Cl)n(-c2cccc(CC(=O)NCC(O)CO)c2)n1 (stereo not shown)

1. 8.48
2. 8.39

---

Target: Abl kinase (Homo sapiens)
Experiment: Abl kinase assay A1 (pyruvate kinase/lactate dehydrogenase coupled, spectrophotometric)
Format: biochemical
Details: Method A1; read-out: Abl Data (IC50)
Procedure: IC50 values were calculated from a series of percent inhibition values determined at a range of inhibitor concentrations using software routines as implemented in the GraphPad Prism software package.
measured-property: log10 of IC50 (log10 of the value in nM)
log10 IC50, nM

See these solved cases before continuing.
{"columns": ["smi", "number"],
 "data": [
  ["CC(C)(C)c1cc(NC(=O)Nc2cccc(Cl)c2Cl)n(-c2ccc3c(c2)CCNC3=O)n1", 2.18],
  ["CC(C)(C)c1cc(NC(=O)Nc2ccc(F)c(F)c2F)n(-c2cc(CO)c3ccccc3c2)n1", 2.04]
]}

Please state, for each entry, its recorded log10 of IC50.
1. CC(C)(C)c1cc(NC(=O)Nc2cccc(Cl)c2Cl)n(-c2cccc(CCC(=O)O)c2)n1
2. CC(C)(C)c1cc(NC(=O)Nc2cccc(Cl)c2Cl)n(-c2cccc(CCN)c2)n1
3. COc1cccc(NC(=O)Nc2cc(C(C)(C)C)nn2-c2cccc(C#N)c2)c1
4. CNC(=O)[C@@H]1Cc2ccc(-n3nc(C(C)(C)C)cc3NC(=O)Nc3cccc(Cl)c3Cl)cc2CN1
5. CC(C)(C)c1cc(NC(=O)Nc2cccc(Cl)c2Cl)n(-c2ccc(CCO)cc2)n1

[3.40, 2.54, 3.63, 2.75, 2.89]

So the reported log10 of IC50 for CC(C)(C)c1cc(NC(=O)Nc2ccc(F)c(F)c2F)n(-c2ccc3c(c2)CCNC3)n1 , on Abl kinase (Homo sapiens), turned out to be 2.15

---

Biological target: KDR kinase (Homo sapiens, UniProt P35968, DEL940-989/E990V)
Assay: KDR kinase assay K2 (as K1, 2.1 nM enzyme, 2 h pre-incubation, 1.0 mM ATP)
Assay type: biochemical
Conditions: Method K2; read-out: KDR Data (IC50)
IC50 strictly less than 3000 nM = met. Otherwise not met.

{"columns": ["smi", "class-label"],
 "data": [
  ["Cn1[nH]c(=O)n(Cc2cccc(-n3nc(C(C)(C)C)cc3NC(=O)Nc3cccc(Cl)c3Cl)c2)c1=O", "met"]
]}

Now look at this one.
Here's an entry: CC(C)(C)c1cc(NC(=O)Nc2cc(F)c(F)c(F)c2)n(-c2cccc(C#N)c2)n1 . Is its IC50 below 3000 nM?
met

---

Biological target: phosphorylated p-38-alpha kinase (Homo sapiens, UniProt Q16539)
Sequence (Q16539 1-360 isoform Q16539-2): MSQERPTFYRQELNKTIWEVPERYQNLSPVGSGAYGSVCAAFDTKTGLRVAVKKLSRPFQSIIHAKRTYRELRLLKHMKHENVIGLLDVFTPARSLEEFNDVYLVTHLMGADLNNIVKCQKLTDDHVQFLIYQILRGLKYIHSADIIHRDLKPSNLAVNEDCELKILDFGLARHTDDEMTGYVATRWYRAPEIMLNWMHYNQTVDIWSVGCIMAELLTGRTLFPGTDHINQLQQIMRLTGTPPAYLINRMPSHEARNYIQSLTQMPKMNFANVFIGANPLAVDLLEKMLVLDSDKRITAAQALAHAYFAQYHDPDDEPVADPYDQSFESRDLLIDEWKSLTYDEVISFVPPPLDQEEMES
Assay: P-38 alpha kinase assay P1 (coupled spectrophotometric, 2 h pre-incubation)
Type: biochemical
Counter-ions that a name gives are not always drawn.
Please respond with reported pIC50 for every item in the list.
Give bare numbers, as −log10 of the molar value.

Below: 2 compounds and their reported pIC50.
{"columns": ["compound", "pIC50"],
 "data": [
  ["Cn1c(=O)c(-c2cccc(NC(=O)Nc3cc(C(C)(C)C)nn3-c3ccc4c(c3)CC(C(N)=O)NC4)c2)cc2cncnc21 (stereo not drawn) [Example 185, dihydrochloride]", 7.64],
  ["CC(C)(C)c1cc(NC(=O)Nc2cccc(Cl)c2Cl)n(-c2ccc3c(c2)CCCN3)n1 [Example 135, hydrochloride]", 7.36]
]}

Query CC(C)(C)c1cc(NC(=O)Nc2cccc(Oc3cccnc3)c2)n(-c2cc(CC(N)=O)c3ccccc3c2)n1 [Example 86, hydrochloride] yields pIC50 of 7.62

---

Biological target: Abl kinase (Homo sapiens, UniProt P00519)
Sequence (P00519 229-512): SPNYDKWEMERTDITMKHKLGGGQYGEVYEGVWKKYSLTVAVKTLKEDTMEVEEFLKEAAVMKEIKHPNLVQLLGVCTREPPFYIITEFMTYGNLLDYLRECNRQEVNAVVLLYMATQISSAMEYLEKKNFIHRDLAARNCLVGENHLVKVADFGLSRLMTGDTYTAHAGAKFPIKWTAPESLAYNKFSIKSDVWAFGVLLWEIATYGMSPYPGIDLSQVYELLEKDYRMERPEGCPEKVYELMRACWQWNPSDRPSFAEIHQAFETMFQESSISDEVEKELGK
Test: Abl kinase assay A1 (pyruvate kinase/lactate dehydrogenase coupled, spectrophotometric)
Format: biochemical
Conditions: Method A1; read-out: Abl Data (IC50)
Method: IC50 values were calculated from a series of percent inhibition values determined at a range of inhibitor concentrations using software routines as implemented in the GraphPad Prism software package.
measured-property: pIC50
Give bare numbers, as −log10 of the molar value.

{"columns": ["compound", "pIC50"],
 "data": [
  ["CC(C)(C)c1cc(NC(=O)Nc2cccc(Cl)c2Cl)n(-c2ccc3c(c2)CCN(S(C)(=O)=O)C3)n1 [Example 154]", 6.57],
  ["CC(C)(C)c1cc(NC(=O)Nc2cccc(C(F)(F)F)c2)n(-c2cccc(C#N)c2)n1 [Example 11]", 5.29]
]}

// recorded pIC50 for CC(C)(C)c1cc(NC(=O)Nc2cccc(Br)c2)n(-c2cccc(CN)c2)n1 [Example 41] : 5.43

---

Target: Abl kinase (Homo sapiens)
Assay: Abl kinase assay A1 (pyruvate kinase/lactate dehydrogenase coupled, spectrophotometric)
Type: biochemical
Details: Method A1; read-out: Abl Data (IC50)
Description: IC50 values were calculated from a series of percent inhibition values determined at a range of inhibitor concentrations using software routines as implemented in the GraphPad Prism software package.
measured-property: pIC50
Give bare numbers, as −log10 of the molar value.

{"columns": ["compound", "pIC50"],
 "data": [
  ["CC(C)(C)c1cc(NC(=O)Nc2cccc(Cl)c2Cl)n(-c2ccc3c(c2)CCNCC3)n1", 6.64],
  ["CC(C)(C)c1cc(NC(=O)Nc2cccc(Cl)c2Cl)n(-c2cccc(C#N)c2)n1", 6.74],
  ["CC(C)(C)c1cc(NC(=O)Nc2cccc(Cl)c2Cl)n(-c2cccc(-c3cn[nH]c3)c2)n1", 6.42],
  ["CC(C)(C)c1cc(NC(=O)Nc2cc(F)c(F)cc2F)n(-c2cc(CN)c3ccccc3c2)n1", 7.05],
  ["CC(C)(C)c1cc(NC(=O)Nc2cc(F)ccc2F)n(-c2cc(CC(N)=O)c3ccccc3c2)n1", 7.14],
  ["CC(C)(C)c1cc(NC(=O)Nc2cc(F)c(F)c(F)c2)n(-c2cc(CO)c3ccccc3c2)n1", 7.15]
]}

Please report pIC50 for every entry that follows.
1. CC(C)(C)c1cc(NC(=O)Nc2ccc(Cl)cc2)n(-c2cc(CNC(=O)NS(C)(=O)=O)c3ccccc3c2)n1
2. CC(C)(C)c1cc(NC(=O)Nc2cccc(Cl)c2Cl)n(-c2ccc3c(c2)N(S(C)(=O)=O)CC3)n1
3. CC(C)(C)c1cc(NC(=O)Nc2ccc(C#N)cc2)n(-c2cc(CC(N)=O)c3ccccc3c2)n1
4. CC(C)(C)c1cc(NC(=O)Nc2cccc(Cl)c2Cl)n(-c2ccc3[nH]c(=O)ccc3c2)n1
5. CC(C)(C)c1cc(NC(=O)Nc2cccc(Cl)c2Cl)n(-c2ccc3c(c2)CN[C@H](C(=O)O)C3)n1

1: 5.68; 2: 6.72; 3: 6.74; 4: 6.59; 5: 5.74
